Measured values drawn from patent US20050256181A1 for this set.

Target: UniProtKB Q96EB6
Sequence (Q96EB6 1-747): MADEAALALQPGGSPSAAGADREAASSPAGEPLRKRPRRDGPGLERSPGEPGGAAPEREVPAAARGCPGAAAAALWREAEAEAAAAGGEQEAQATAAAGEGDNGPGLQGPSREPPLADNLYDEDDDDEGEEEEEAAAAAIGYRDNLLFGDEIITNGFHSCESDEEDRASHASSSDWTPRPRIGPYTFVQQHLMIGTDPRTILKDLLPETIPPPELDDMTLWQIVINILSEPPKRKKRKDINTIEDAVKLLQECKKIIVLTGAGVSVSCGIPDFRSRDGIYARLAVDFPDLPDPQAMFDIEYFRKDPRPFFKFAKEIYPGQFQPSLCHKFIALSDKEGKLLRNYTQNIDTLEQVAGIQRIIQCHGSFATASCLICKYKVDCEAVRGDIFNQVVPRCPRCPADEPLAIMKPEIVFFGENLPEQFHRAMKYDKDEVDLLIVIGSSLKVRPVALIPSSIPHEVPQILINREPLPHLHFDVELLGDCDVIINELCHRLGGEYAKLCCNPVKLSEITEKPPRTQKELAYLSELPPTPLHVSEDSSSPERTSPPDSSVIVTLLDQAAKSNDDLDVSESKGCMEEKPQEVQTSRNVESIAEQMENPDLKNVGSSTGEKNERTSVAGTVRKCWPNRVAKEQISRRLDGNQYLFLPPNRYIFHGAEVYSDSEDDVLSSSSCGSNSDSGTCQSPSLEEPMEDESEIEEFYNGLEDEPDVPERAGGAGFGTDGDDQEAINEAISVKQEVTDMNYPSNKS
pIC50: −log10 of the molar value.
Assignment: determine reported pIC50 for the given compounds.

Request - read-out pIC50 | tested on UniProtKB Q96EB6 | compound NC(=O)C1CCc2c1[nH]c1ccc(Cl)cc21 (stereo not drawn) [Compound 1]
> 6.00

Form field: pIC50 recorded for NC(=O)C1CCc2c1[nH]c1ccccc21 (stereo not drawn) [Compound 10] with UniProtKB Q96EB6 (enter value)
5.00 to 6.00

Short answer please: pIC50, UniProtKB Q96EB6, entry NC(=O)C1Cc2c([nH]c3ccccc23)CN1 (stereo not drawn) [Compound 2]
< 5.00
